Target: T1, GST-MINT1 PDZ domain 2 (Mus musculus (Mouse)), B2RUJ5
T1 chain: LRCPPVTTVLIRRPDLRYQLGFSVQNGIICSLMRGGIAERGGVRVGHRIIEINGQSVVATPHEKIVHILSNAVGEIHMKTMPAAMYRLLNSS
Experiment: G assay titration, PDZ 5 ug/ml
readout-type: pKd
Remember, pKd is on a log scale: it is -log10 of the molar concentration.

[Q] Could you please provide reported pKd for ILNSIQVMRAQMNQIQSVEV (modifications not checked) [ephrin B2] ? Thanks!
[A] 5.52
